Data origin: patent US20240209095A1

I'd be grateful if you could share measured pKd for these entries.
# EXPERIMENTAL SYSTEM: T1, PDL1-hFc (UniProt Q9NZQ7 19-238)
# T1 construct: Coated at 1 µg/ml in the ELISAs of the chimeric and humanized antibodies; construct not described
# T1 sequence (Q9NZQ7 19-238): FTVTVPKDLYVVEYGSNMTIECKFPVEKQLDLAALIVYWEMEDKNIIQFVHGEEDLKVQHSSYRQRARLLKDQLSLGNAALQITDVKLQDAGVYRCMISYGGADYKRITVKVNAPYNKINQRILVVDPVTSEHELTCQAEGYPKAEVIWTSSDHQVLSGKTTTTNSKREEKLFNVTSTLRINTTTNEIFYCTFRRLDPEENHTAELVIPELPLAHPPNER
# METHOD: ELISA titration on PDL1-hFc 1 ug/ml, 45 nM to 2.7×10^-3 nM, one site-specific binding fit
Answers are plain numbers, as −log10 of the molar value.

Name the recorded pKd for 1G8 humanized antibody HuB2Hu (antibody, V domains shown, Human IgG, kappa, from pTCAED vectors; also called 1G8 HuB2Hu) VH: EVQLQESGPGLVKPSQTLSLTCTVSGYSITSDYWNWIRKPPGKGLEYMGYISYTGSTYYNPSLKSRITISRDTSKNQYSLKLSSVTAADTAVYYCARRGEWLSPFAYWGQGTLVTVSS VL: DIQMTQSPSSLSASVGDRVTITCKSSQSLLYSSNQKNSLAWYQQKPGKAPKLLIYWASTRESGVPSRFSGSGSGTDFTLTISSLQPEDFATYYCQQYYTYPFTFGQGTKLEIK .
9.61

Name the recorded pKd for 1G8 humanized antibody HuB2Hu2 (antibody, V domains shown, Human IgG, kappa, from pTCAED vectors; also called 1G8 HuB2Hu2) VH: EVQLQESGPGLVKPSQTLSLTCTVSGYSITSDYWNWIRKPPGKGLEYMGYISYTGSTYYNPSLKSRITISRDTSKNQYSLKLSSVTAADTAVYYCARRGEWLSPFAYWGQGTLVTVSS VL: DIVMTQTPLSLSVTPGQPASISCKSSQSLLYSSNQKNSLAWYLQKPGQSPQLLIYWASTRESGVPDRFSGSGSGTDFTLKISRVEAEDVGVYYCQQYYTYPFTFGQGTKLEIK .
9.97

Name the recorded pKd for 3C3 humanized antibody HuB2Hu0 (antibody, V domains shown, Human IgG, kappa, from pTCAED vectors; also called 3C3-HuB2Hu0; 3C3 HuB2Hu0) VH: EVQLQESGPGLVKPSQTLSLTCTVSGYSITSDYWDWIRKPPGKGLEYMGYISYTGSTYYNPSLRSRITISRDTSKNQYSLKLSSVTAADTAVYYCARRGGWLSPFVYWGQGTLVTVSS VL: DIVMTQSPDSLAVSLGERATINCKSRQSLLFSSNQKNSLAWYQQKPGQPPKLLIYWASTRESGVPDRFSGSGSGTDFTLTISSLQAEDVAVYYCQQYYTYPFTFGQGTKLEIK .
9.97

Please supply pKd for each of the following items, keeping them in order.
1. 1G8 humanized antibody HuHu (antibody, V domains shown, Human IgG, kappa, from pTCAED vectors; also called 1G8 HuHu) VH: QVQLQESGPGLVKPSQTLSLTCTVSGYSITSDYWNWIRQPPGKGLEWIGYISYTGSTYYNPSLKSRVTISVDTSKNQFSLKLSSVTAADTAVYYCARRGEWLSPFAYWGQGTLVTVSS VL: DIQMTQSPSSLSASVGDRVTITCKSSQSLLYSSNQKNSLAWYQQKPGKAPKLLIYWASTRESGVPSRFSGSGSGTDFTLTISSLQPEDFATYYCQQYYTYPFTFGQGTKLEIK
2. 3C3 humanized antibody HuB2Hu (antibody, V domains shown, Human IgG, kappa, from pTCAED vectors; also called 3C3-HuB2Hu; 3C3 HuB2Hu) VH: EVQLQESGPGLVKPSQTLSLTCTVSGYSITSDYWDWIRKPPGKGLEYMGYISYTGSTYYNPSLRSRITISRDTSKNQYSLKLSSVTAADTAVYYCARRGGWLSPFVYWGQGTLVTVSS VL: DIQMTQSPSSLSASVGDRVTITCKSRQSLLFSSNQKNSLAWYQQKPGKAPKLLIYWASTRESGVPSRFSGSGSGTDFTLTISSLQPEDFATYYCQQYYTYPFTFGQGTKLEIK
3. 3C3 humanized antibody HuB2Hu2 (antibody, V domains shown, Human IgG, kappa, from pTCAED vectors; also called 3C3-HuB2Hu2; 3C3 HuB2Hu2) VH: EVQLQESGPGLVKPSQTLSLTCTVSGYSITSDYWDWIRKPPGKGLEYMGYISYTGSTYYNPSLRSRITISRDTSKNQYSLKLSSVTAADTAVYYCARRGGWLSPFVYWGQGTLVTVSS VL: DIVMTQTPLSLSVTPGQPASISCKSRQSLLFSSNQKNSLAWYLQKPGQSPQLLIYWASTRESGVPDRFSGSGSGTDFTLKISRVEAEDVGVYYCQQYYTYPFTFGQGTKLEIK
4. 1G8 humanized antibody HuHu2 (antibody, V domains shown, Human IgG, kappa, from pTCAED vectors; also called 1G8 HuHu2) VH: QVQLQESGPGLVKPSQTLSLTCTVSGYSITSDYWNWIRQPPGKGLEWIGYISYTGSTYYNPSLKSRVTISVDTSKNQFSLKLSSVTAADTAVYYCARRGEWLSPFAYWGQGTLVTVSS VL: DIVMTQTPLSLSVTPGQPASISCKSSQSLLYSSNQKNSLAWYLQKPGQSPQLLIYWASTRESGVPDRFSGSGSGTDFTLKISRVEAEDVGVYYCQQYYTYPFTFGQGTKLEIK

[8.49, 10.03, 10.00, 8.01]
